- Assay notes: Solubility at equilibrium, shake flask method with spectrophotometric determination
- Type: physicochemical
- Condition summary: simulated gastric fluid, thermodynamic from solid; pH 2.0 (0.01N hydrochloric acid), 21 °C
Endpoint: solubility (µg/mL)

[[record]]
chemical_string = "O=c1[nH]c2ccccc2n1C1CCN(CCCC(c2ccc(F)cc2)c2ccc(F)cc2)CC1"
unit_annotation = "µg/mL"
reported_measurement = 175


---

- Assay notes: Solubility at equilibrium, shake flask method with spectrophotometric determination
- Type: physicochemical
- Condition summary: aqueous buffer, thermodynamic from solid; pH 4.5 (phosphate buffer), 21 °C
Endpoint: solubility

[[record]]
molecule = "O=c1[nH]c2ccccc2n1C1CCN(CCCC(c2ccc(F)cc2)c2ccc(F)cc2)CC1 [PMZ]"
endpoint = "solubility"
reported_measurement = "6.4 µg/mL"

